System: Rattus norvegicus
Assay: Effective dose was evaluated for drug discrimination in I-trained rats, when given at a dose of 1.16 micro mol/kg
Format: functional
Reported ED50 by item:
Your answer should be a plain number; it is taken to be in µmol/kg.

| molecule | assay target | display unit | value observed |
| --- | --- | --- | --- |
| COc1cc(C[C@H](C)N)ccc1C | Rattus norvegicus | µmol/kg | 2.14 |
| COc1ccc2c(c1C)CC(N)C2 (centres undefined) | Rattus norvegicus | µmol/kg | 3.77 |
| COc1cc(CC(C)N)ccc1C (centres undefined) | Rattus norvegicus | µmol/kg | 2.74 |

Now look at this one.
Task: Would you mind telling me what ED50 value was observed for COc1cc(C[C@@H](C)N)ccc1C ?
Output: 2.12
